Reference for the values: patent US5155103A

Tested on: human thrombocytes (PAF-induced aggregation)
Experiment: inhibition of PAF-induced aggregation of human thrombocytes in vitro
Type: cell-based
Settings: Table B; PAF 5×10^-8 M; human thrombocyte-rich plasma; read-out: PAF-Antag. IC50
observed.property: pIC50
One number for each entry, as −log10 of the molar value.

Answered examples (3):
Cc1nnc2n1-c1sc(CCC(=O)N3CCN(C)CC3)cc1C(c1ccccc1Cl)=NC2    6.05
Cc1nnc2n1-c1sc(CC(N)=O)cc1C(c1ccccc1Cl)=NC2    5.28
Cc1nnc2n1-c1sc(CCC(=O)N3CCOCC3)cc1C(c1ccccc1Cl)=NC2    6.77

For record CCCOc1nnc2n1-c1sc(CCC(=O)N3CCOCC3)cc1C(c1ccccc1Cl)=NC2 the listed pIC50 is 5.09

----------
Tested on: human thrombocytes (PAF-induced aggregation)
Test: inhibition of PAF-induced aggregation of human thrombocytes in vitro
Type: cell-based
Conditions: Table B; PAF 5×10^-8 M; human thrombocyte-rich plasma; read-out: PAF-Antag. IC50
Procedure: In order to determine the PAF-antagonistic effect of substances the PAF-induced aggregation of human thrombocytes in vitro is used. To obtain thrombocyte-rich plasma (TRP), blood is taken from an uncongested vein using a plastic syringe containing 3.8% sodium citrate solution. […] The thrombocyte aggregation is measured using the method developed by Born and Cross (G. V. R. Born and M. J. Cross, J. Physiol. 168, 178 (1963)), PAF being added to the TRP with constant stirring to initiate aggregation. […]
pIC50: −log10 of the molar value.
Respond with satisfied for pIC50 values of 6 and above, not satisfied for values below.

Please review the following examples before continuing.
CNC(=O)CCc1cc2c(s1)-n1c(C)nnc1CN=C2c1ccccc1Cl    satisfied
CCc1cc2c(s1)-n1c(C)nnc1CN=C2c1ccccc1Cl [Etizolam, reference compound]    satisfied
Cc1nnc2n1-c1sc(Br)cc1C(c1ccccc1Cl)=NC2 [Brotizolam, reference compound]    satisfied

Prompt line: Reported pIC50 reaches at least 6 for Cc1nnc2n1-c1sc(CCC(=O)N3CCOCC3)cc1C(c1ccccc1)=NC2 ?
Response line: satisfied

Prompt line: Reported pIC50 reaches at least 6 for O=C(CCc1cc2c(s1)-n1cnnc1CN=C2c1ccccc1Cl)N1CCOCC1 ?
Response line: not satisfied

Prompt line: Reported pIC50 reaches at least 6 for Cc1nnc2n1-c1sc(CCC(=O)N3CCCC3)cc1C(c1ccccc1Cl)=NC2 ?
Response line: satisfied

----------
Tested on: human thrombocytes (PAF-induced aggregation)
Test: inhibition of PAF-induced aggregation of human thrombocytes in vitro
Format: cell-based
Details: Table B; PAF 5×10^-8 M; human thrombocyte-rich plasma; read-out: PAF-Antag. IC50
observed.property: IC50 (nM)
Give bare numbers, in nM.

Answered examples (3):
COc1nnc2n1-c1sc(CCC(=O)N3CCOCC3)cc1C(c1ccccc1Cl)=NC2    200
Cc1nnc2n1-c1sc(CCC(=O)NCCO)cc1C(c1ccccc1Cl)=NC2    750
Cc1nnc2n1-c1sc(C(N)=O)cc1C(c1ccccc1Cl)=NC2    8300

Report IC50 for each item below.
1. O=C(CCc1cc2c(s1)-n1c(CCl)nnc1CN=C2c1ccccc1Cl)N1CCOCC1
2. Cc1nnc2n1-c1sc(CCCC(=O)N3CCOCC3)cc1C(c1ccccc1Cl)=NC2
3. O=C(CCc1cc2c(s1)-n1c(nnc1C1CC1)CN=C2c1ccccc1Cl)N1CCOCC1
4. Cc1nnc2n1-c1sc(CCCCC(=O)N3CCOCC3)cc1C(c1ccccc1Cl)=NC2

Response line:
[1400, 850, 330, 870]

For record Cc1nnc2n1-c1sc(CCC(=O)N(C)C)cc1C(c1ccccc1Cl)=NC2 the listed IC50 is 2200
